# experimental-protocol: chemical genetic growth profiling, strain panel (AID 1159580);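 note: tested at 20 µM; growth read once vehicle control cultures reached saturation at 30 °C; 1 = growth at the plate median or of vehicle wells; lower values mean less growth of the strain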
# measurement-setup: S. cerevisiae deletion strains, growth OD, locus YJR075W, strain HOC1
In all, about 5,500 compounds went through this assay and about 2,000 (36%) were called active. Inconclusive results (about 18%) are left out. Cut-off read from the data, not from the text of the source: active = normalized growth mostly below about 0.91 (no sharp cut-off); inconclusive = no clear call, values can overlap the other calls; inactive = mostly above about 0.92. The list shows a part of the results.
Bench note: report the call from 1 (yes) for active, 0 (no) for inactive

How did this test come out for `O=c1c(-c2ccc3c(c2)OCO3)coc2cc(O)ccc12` ?
0 (no)

Tell me the assay call for `COc1ccc2[nH]c(I)c(CCNC(C)=O)c2c1` please.
1 (yes)

Hey, what did the test say about CC(=O)SC1CC2=CC(=O)CC[C@]2(C)C2CC[C@@]3(C)C(CC[C@@]34CCC(=O)O4)C12 (some centres not stated) ?
0 (no)

Lab log entry: `COc1c2c(cc3occ(-c4ccc5c(c4)OCO5)c(=O)c13)OC(C)(C)C=C2` — outcome as called in the assay?
0 (no)

Please let me know the test result on file for `O=c1[nH]cnc2nc[nH]c12` .
0 (no)

Answer briefly: the call reported for `CNCCNS(=O)(=O)c1cccc2cnccc12` in this assay.
0 (no)

Please share the test call associated with `c1coc(CNc2ncnc3nc[nH]c23)c1` .
0 (no)

Test call for this compound, please: `C[N+](C)(C)CC=O`
0 (no)

Any idea what this test logged for `CC1(C)C=Cc2c(cc3occ(-c4ccc5c(c4)OCO5)c(=O)c3c2O)O1` ?
0 (no)

Entry `CC(C)(C)c1cc(C(C)(C)C)n(-c2ccc([N+](=O)[O-])cc2)n1` : call = ?
0 (no)

Could you check what this test reported for `CCCc1ccc(OC)cc1NC(C)=O` ?
0 (no)

In this assay, the call recorded for C[C@]12C=CC(=O)C=C1CCC1C2C(=O)C[C@@]2(C)C1CC[C@]2(O)C(=O)CO (some centres not stated) was what?
0 (no)

----------
# experimental-protocol: chemical genetic growth profiling, strain panel (AID 1159580);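 note: tested at 20 µM; growth read once vehicle control cultures reached saturation at 30 °C; 1 = growth at the plate median or of vehicle wells; lower values mean less growth of the strain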
# measurement-setup: S. cerevisiae deletion strains, growth OD, strain wtn01, stronger effect = lower value
About 2,000 (36%) of roughly 5,500 compounds were called active. Inconclusive results (about 18%) are left out. The list shows a part of the results.
property-measured: normalized growth
Form rule: numeric answer, no unit written next to it.

Provide only the value of recorded normalized growth for `COc1cc(O)c(C(=O)c2ccccc2)c(OC)c1`
0.929

Note down normalized growth recorded for C[C@]12C=CC(=O)C=C1CCC1C2CC[C@]2(C)C(=O)CCC12 (some centres not stated)
0.99

Could you please provide reported normalized growth for `O=C(CCCN1CC=C(n2c(=O)[nH]c3ccccc32)CC1)c1ccc(F)cc1` ? Thanks!
0.991

// Input: `NCCS` . Output its normalized growth only.
1.09

Indicate the recorded normalized growth value for this compound: `O=c1[nH]cnc2nc[nH]c12`
0.975

Consider the compound CC(C)CCCC(C)C1CCC2C3CCC4CC(=O)CCC4(C)C3CCC12C (configuration not stated) . State its measured normalized growth.
1.04

Check the records and state normalized growth for C[C@]12CCC3c4ccc(O)cc4CCC3C1CC[C@@H]2OC(=O)CCC1CCCC1 (some centres not stated)
1.01

Give the reported normalized growth for this compound. CC(C(=O)O)c1ccc(N2Cc3ccccc3C2=O)cc1 (configuration not stated)
0.987

Tell me measured normalized growth for `CC1(C)S[C@@H]2[C@H](NC(=O)COc3ccccc3)C(=O)N2[C@H]1C(=O)O` please.
1.02

Using the record for C[C@]12CCC3C(CC[C@H]4C[C@@H](Cl)CC[C@]34C)C1CCC2=O (some centres not stated) , state its measured normalized growth.
0.967

Given the compound `O=C1c2ccccc2C(=O)c2c1ccc(O)c2O` , write its reported normalized growth.
0.295

Read the entry COc1cc(OC)c2c(c1Cl)OC1(C2=O)C(O)=CC(=O)CC1C (configuration not stated) and write its reported normalized growth.
1.04

Fill in reported normalized growth for this entry: C[N+]1(C)C2CC[C@H]1CC(OC(=O)C(O)c1ccccc1)C2 (some centres not stated)
1.03

Let me know recorded normalized growth for `c1coc(CNc2ncnc3nc[nH]c23)c1` , thanks.
0.986

Name the recorded normalized growth of the compound listed here: `O=c1n(CCCN2CCN(c3cccc(Cl)c3)CC2)nc2ccccn12`
1.03

Give the measured normalized growth for CN1Cc2c(N)cccc2C(c2ccccc2)C1 (configuration not stated)
1.02

Using known records, supply normalized growth for CCCC(=O)Nc1ncnc2c1ncn2C1O[C@@H]2COP(=O)(O)O[C@H]2[C@H]1OC(=O)CCC (some centres not stated)
1.02

For the compound `CC(C)=CCC1=C(O)c2ccccc2C(=O)C1=O` , report normalized growth.
0.951

Let me know recorded normalized growth for `Cc1ncc([N+](=O)[O-])n1CCO` , thanks.
1.02

# return recorded normalized growth for entry CC(=O)OCC(=O)[C@@]1(O)CCC2C3CCC4=CC(=O)CC[C@]4(C)[C@@]3(F)[C@@H](O)C[C@@]21C (some centres not stated)
0.995

Consider the compound `O=c1c(-c2ccc3c(c2)OCO3)coc2cc(O)ccc12` . State its measured normalized growth.
0.983

Given `O=[N+]([O-])/N=C1/NCCN1Cc1ccc(Cl)cc1` , respond with its normalized growth.
0.983

Give the reported normalized growth for this compound. `COc1cc(O)c(C)c(O)c1`
1.02

Give recorded normalized growth. `Nc1ncnc2c1ncn2[C@@H]1O[C@H](CO)[C@@H](O)[C@@H]1O`
1.02

Give reported normalized growth value for `CCCCC(=O)N(Cc1ccc(-c2ccccc2-c2nn[nH]n2)cc1)[C@H](C(=O)O)C(C)C`
0.96

Provide measured normalized growth value, entry: `CCCCCN=C(N)N/N=C\c1c[nH]c2ccc(OC)cc12`
1.01

Tell me normalized growth reported for Cn1nnnc1SCC1=C(C(=O)O)N2C(=O)C(NC(=O)C(OC=O)c3ccccc3)C2SC1 (configuration not stated)
1.01

Please give measured normalized growth of the following entry: `CN(C)c1nc(N(C)C)nc(N(C)C)n1`
1.02

Identify normalized growth associated with the compound `CCOc1ccc(Cc2nccc3cc(OCC)c(OCC)cc23)cc1OCC`
0.924

Look up normalized growth of `CC1(C)C[C@@H]2C(=O)CC[C@H]3O[C@]3(C)CC[C@H]21` and report it.
0.989

Return the recorded normalized growth value; entry: `COc1ccc2c(=O)c(CC(=O)O)coc2c1`
1.04

Give recorded normalized growth. `CC(=O)N[C@@H](CC(=O)O)C(=O)O`
1.01

Tell me its normalized growth given `CC1=C2[C@](C)(C=CC1=O)C[C@H](O)[C@H]1[C@H](C)C(=O)O[C@]21C` as the entry.
1

Supply reported normalized growth belonging to this compound: `CC(C)=CCc1c(O)cc2occ(-c3ccc4c(c3)OCO4)c(=O)c2c1O`
1.02

Return normalized growth for the following compound: CCOC(=O)C1=C(C)NC(C)=C(C(=O)OC)C1c1cccc([N+](=O)[O-])c1 (configuration not stated)
0.987

In one line, give reported normalized growth of the entry `COc1c(O)cc(O)cc1O` .
1.03

Tell me measured normalized growth for C[C@]12C=CC(=O)C=C1CCC1C2C(=O)C[C@@]2(C)C1CC[C@]2(O)C(=O)CO (some centres not stated) please.
0.992

Identify normalized growth associated with the compound CSCCC(NC=O)C(=O)NC(CC(C)C)C(=O)NC(Cc1ccccc1)C(=O)O (configuration not stated)
0.986

For `Cn1c(=O)[nH]c(=O)c2[nH]cnc21` , write its normalized growth.
0.982

Give reported normalized growth value for `OCCN1CCN(CCCN2c3ccccc3Sc3ccc(Cl)cc32)CC1`
0.951

Tell me normalized growth reported for `CC(C)=CCOc1c2occc2cc2ccc(=O)oc12`
0.708

Answer with the recorded normalized growth of `COc1cc(O)c(C(=O)O)c(O)c1` only.
1.01

Supply reported normalized growth belonging to this compound: `O=C(O)c1cc2cc(Cl)ccc2[nH]1`
0.992

Using the record for CC(=O)OC1CCC23C(=O)OC45CCC(C6=CC(=O)OC6)C4(C)CCC2C5CCC3(O)C1 (configuration not stated) , state its measured normalized growth.
1

Give the reported normalized growth for this compound. `COc1ccc(Cc2nccc3cc(OC)c(OC)cc23)cc1OC`
0.985

Tell me normalized growth reported for `COc1cc2ccc(=O)oc2cc1O`
1.01

State, in one line, measured normalized growth of `COc1ccc2ccc(=O)oc2c1CC=C(C)C`
0.843

----------
# experimental-protocol: chemical genetic growth profiling, strain panel (AID 1159580);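 note: tested at 20 µM; growth read once vehicle control cultures reached saturation at 30 °C; 1 = growth at the plate median or of vehicle wells; lower values mean less growth of the strain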
# measurement-setup: S. cerevisiae deletion strains, growth OD, locus YPL051W, strain arl3
The campaign covered roughly 5,500 compounds. About 2,000 (36%) were called active. Not shown: some 18% with an inconclusive outcome. Rule as the data show it: active = normalized growth mostly below about 0.91 (no sharp cut-off); inconclusive = no clear call, values can overlap the other calls; inactive = mostly above about 0.92. Some of the results follow.
Your response should consist of one outcome taken from 1 (yes) = active, 0 (no) = inactive

For CCOC(=O)C1=C(C)NC(C)=C(C(=O)OC)C1c1cccc([N+](=O)[O-])c1 (stereo not drawn) , what call appears in the results of this test?
0 (no)

Hi, do you know how `Cc1nccc2c1[nH]c1ccccc12` came out in this test?
0 (no)

Give the logged outcome of this assay for the following compound: `Cc1cccc(N(C)C(=S)Oc2ccc3ccccc3c2)c1`
0 (no)

What was the test verdict on `O=c1[nH]c2ccccc2n1CCCN1CCC(n2c(=O)[nH]c3cc(Cl)ccc32)CC1` ?
0 (no)

What did this assay record as the result for `CC(C)=CCOc1cc2oc(=O)ccc2cc1O` ?
1 (yes)

Hey, what did the test say about `CN1CCN(C(c2ccccc2)c2ccccc2)CC1` ?
0 (no)

Would you mind telling me which call this test gave CC1=C2CCC3C(CC[C@]4(C)C(=O)CCC34)[C@@]2(C)CCC1=O (stereo partly drawn) ?
0 (no)

Could you check what this test reported for CSCCC(NC=O)C(=O)NC(CC(C)C)C(=O)NC(Cc1ccccc1)C(=O)O (stereo not drawn) ?
0 (no)

How did this test come out for `CC(=O)c1ccc2c(c1)N(CCCN(C)C)c1ccccc1S2` ?
0 (no)

# outcome recorded in this test, key = CC(C)(O)CC[C@@H](O)[C@](C)(O)C1CC[C@@]2(O)C3=CC(=O)C4C[C@@H](O)[C@@H](O)C[C@]4(C)C3CC[C@]12C (stereo partly drawn)
0 (no)

Please state the recorded outcome for this compound: `O=C(O)CCCN1C(=O)c2cccc3cccc(c23)C1=O`
0 (no)

Assay result, entry C=C1CC2C(CCC3(C)C(=O)CCC23)C2(C)C=CC(=O)C=C12 (stereo not drawn) — outcome?
0 (no)

Per the records of this test, what outcome belongs to O=C1OC(=O)C2C3CCC(O3)C12 (stereo not drawn) ?
0 (no)

Each compound tested received a call. Report the one for `COc1c2occc2cc2ccc(=O)oc12` .
0 (no)

Recorded test outcome, item `C[C@H]1C(=O)O[C@@H]2CCN3CC=C(COC(=O)[C@](C)(O)[C@]1(C)O)[C@H]23`
0 (no)

Tell me the assay call for CCOc1nc2cccc(C(=O)OC(C)OC(=O)OC3CCCCC3)c2n1Cc1ccc(-c2ccccc2-c2nn[nH]n2)cc1 (stereo not drawn) please.
0 (no)

State the result this test recorded for `Nc1ncnc2nc[nH]c12` .
0 (no)

Query: recorded result category for `O=c1[nH]c2ccccc2n1C1CCN(CCCC(c2ccc(F)cc2)c2ccc(F)cc2)CC1` in this test
0 (no)

Query: recorded result category for COC(=O)C[C@H]1C(C)(C)[C@@H](OC(C)=O)[C@@H]2CC3C4CC(=O)O[C@@H](c5ccoc5)[C@]4(C)CCC3[C@@]1(C)C2=O (stereo partly drawn) in this test
0 (no)

Could you kindly confirm the outcome this assay logged for `O=c1ccc2cc(O[C@@H]3O[C@H](CO)[C@@H](O)[C@H](O)[C@H]3O)c(O)cc2o1` ?
0 (no)

Identify the outcome logged in this assay for the compound shown: `CC1(C)S[C@@H]2[C@H](NC(=O)COc3ccccc3)C(=O)N2[C@H]1C(=O)O`
0 (no)

Name the outcome recorded for `COc1cc2ccc(=O)oc2cc1O` in the assay.
0 (no)

// return assay outcome for `Fc1ccc(C(c2ccc(F)cc2)N2CCN(C/C=C/c3ccccc3)CC2)cc1`
1 (yes)

Check the results log: what was the call for Cn1nnnc1SCC1=C(C(=O)O)N2C(=O)C(NC(=O)C(OC=O)c3ccccc3)C2SC1 (stereo not drawn) ?
0 (no)

Short answer needed: outcome of this test for `O=C1c2ccccc2-c2cccc3cccc1c23` ?
1 (yes)

Record request — test call for CC(=O)OC1CCC23C(=O)OC45CCC(C6=CC(=O)OC6)C4(C)CCC2C5CCC3(O)C1 (stereo not drawn)
0 (no)

Tell me the recorded outcome of this test for `CNC(=O)CSP(=S)(OC)OC` .
0 (no)

Record lookup: outcome of this test for `COP(=S)(OC)SCn1nnc2ccccc2c1=O` ?
0 (no)

For `c1ccc2c(c1)[nH]c1cnccc12` , what call appears in the results of this test?
0 (no)

Record request — test call for `Cc1cc(C)nc(NS(=O)(=O)c2ccc(N)cc2)n1`
0 (no)

What call does the record list for `CC(C)=CCC/C(C)=C/COc1ccc2ccc(=O)oc2c1` ?
0 (no)

I would be grateful if you could indicate the recorded call for `O=c1ccc2ccc(O)c(O)c2o1` .
0 (no)

Tell me the assay call for `c1coc(CNc2ncnc3nc[nH]c23)c1` please.
0 (no)

I'd appreciate the recorded outcome for `Cc1ncc([N+](=O)[O-])n1CCO` from this test.
0 (no)

Outcome? OC[C@@H](O)C(O[C@@H]1O[C@H](CO)[C@H](O)[C@H](O)[C@H]1O)[C@H](O)[C@@H](O)CO (stereo partly drawn)
0 (no)

Each compound tested received a call. Report the one for CC1=C(C(=O)O)N2C(=O)[C@@H](NC(=O)[C@H](N)C3=CCC=CC3)C2SC1 (stereo partly drawn) .
0 (no)

Recorded test call requested for `O=C(/C=C/C(=O)Oc1ccccc1C(=O)O)Oc1ccccc1C(=O)O`
0 (no)

# fetch the recorded call for `Nc1ncnc2c1ncn2[C@@H]1O[C@H](CO)[C@@H](O)[C@@H]1O` here
0 (no)

Would you mind telling me which call this test gave CC(C)CCCC(C)[C@H]1CCC2C3CC[C@H]4CC(=O)CC[C@]4(C)C3CC[C@@]21C (stereo partly drawn) ?
0 (no)

Please share the test call associated with CC(=O)O[C@@H]1CC2C(C)(C)[C@H](O)C[C@H](O)[C@]2(C)C2CC[C@@]3(C)C(=CC(=O)O[C@H]3c3ccoc3)[C@@]21C (stereo partly drawn) .
0 (no)

Name the outcome recorded for `O=c1n(CCCN2CCN(c3cccc(Cl)c3)CC2)nc2ccccn12` in the assay.
0 (no)

Call for entry C[N+]1(C)C2CC[C@H]1CC(OC(=O)C(O)c1ccccc1)C2 (stereo partly drawn) :
0 (no)

In this assay, the call recorded for C[C@]12CCC3C(CC[C@H]4CC(=O)CC[C@]34C)C1CCC2=O (stereo partly drawn) was what?
1 (yes)
